target: phospho-Tyr751 PDGFRβ (Homo sapiens, UniProt P09619); construct: phosphorylation of PDGFR expressed on MG63 osteosarcoma cells; endogenous in cells; experiment: In vitro phospho-Tyr751 PDGFRβ ELISA assay in MG63 osteosarcoma cells, Test (b); conditions: MG63 cells stimulated with PDGFBB, read-out: IC50 versus phospho-Tyr751 PDGFRβ
Sequence (P09619 33-1106): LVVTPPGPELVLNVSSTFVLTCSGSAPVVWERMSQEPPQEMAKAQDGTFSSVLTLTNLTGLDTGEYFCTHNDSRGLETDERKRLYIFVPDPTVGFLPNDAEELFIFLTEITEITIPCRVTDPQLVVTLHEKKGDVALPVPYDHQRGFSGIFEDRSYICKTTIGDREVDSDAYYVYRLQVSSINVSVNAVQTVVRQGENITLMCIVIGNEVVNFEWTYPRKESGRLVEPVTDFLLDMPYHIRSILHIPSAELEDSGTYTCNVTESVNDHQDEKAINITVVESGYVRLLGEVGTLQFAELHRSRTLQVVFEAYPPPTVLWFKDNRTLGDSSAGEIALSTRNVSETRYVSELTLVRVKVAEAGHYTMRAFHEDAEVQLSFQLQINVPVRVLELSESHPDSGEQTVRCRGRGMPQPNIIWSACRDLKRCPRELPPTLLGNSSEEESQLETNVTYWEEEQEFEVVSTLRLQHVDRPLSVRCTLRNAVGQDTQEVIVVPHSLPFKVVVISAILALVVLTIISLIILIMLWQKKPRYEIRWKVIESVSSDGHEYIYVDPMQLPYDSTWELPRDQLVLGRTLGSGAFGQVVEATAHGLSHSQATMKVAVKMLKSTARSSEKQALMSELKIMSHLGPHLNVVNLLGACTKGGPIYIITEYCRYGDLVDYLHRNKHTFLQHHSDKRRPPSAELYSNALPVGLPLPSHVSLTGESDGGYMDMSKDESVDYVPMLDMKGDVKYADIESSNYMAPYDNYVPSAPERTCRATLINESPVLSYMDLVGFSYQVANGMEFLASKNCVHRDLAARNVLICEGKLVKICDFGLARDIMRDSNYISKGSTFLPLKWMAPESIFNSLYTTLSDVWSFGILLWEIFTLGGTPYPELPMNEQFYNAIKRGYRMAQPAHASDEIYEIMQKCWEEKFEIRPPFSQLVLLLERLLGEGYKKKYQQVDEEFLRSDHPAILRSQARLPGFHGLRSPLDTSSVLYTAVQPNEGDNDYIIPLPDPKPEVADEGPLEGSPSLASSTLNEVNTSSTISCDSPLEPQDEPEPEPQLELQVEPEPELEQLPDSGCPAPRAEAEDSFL
pIC50: −log10 of the molar value.
In this section, each of the molecules is paired with its reported pIC50.

COc1cc2ncnc(Oc3cnn(CC(=O)Nc4cccc5c4OCO5)c3)c2cc1OC : ~8.52

Shift focus to the following entry.
Data request: Enter reported pIC50 observed with phospho-Tyr751 PDGFRβ (Homo sapiens, UniProt P09619) for "COc1cc2ncnc(Oc3cnn(CC(=O)Nc4ccc5c(c4)NCC5)c3)c2cc1OC"
Data returned: ~9.00

###

system: MG63 osteosarcoma cells; experiment: In vitro MG63 osteosarcoma proliferation assay, Test (c); type: cell-based; conditions: Homo sapiens, MG-63, BrdU, 72 hours, read-out: IC50 versus MG63 osteosarcoma proliferation
pIC50: −log10 of the molar value.
endpoint: pIC50

Data request: Query pIC50 on MG63 osteosarcoma cells for "COc1cc2ncnc(Oc3cnn(CC(=O)Nc4cccc5c4OCO5)c3)c2cc1OC"
Data returned: ~7.40

###

molecular target: KDR tyrosine kinase (Homo sapiens); construct: a DNA fragment encoding most of the cytoplasmic domain, commencing with methionine 806 and including the termination codon; assay: In vitro enzyme assay (ELISA), Test (a), KDR; settings: ATP 8 μM, read-out: IC50 versus KDR tyrosine kinase
Sequence (P35968 786-1356 limits assumed): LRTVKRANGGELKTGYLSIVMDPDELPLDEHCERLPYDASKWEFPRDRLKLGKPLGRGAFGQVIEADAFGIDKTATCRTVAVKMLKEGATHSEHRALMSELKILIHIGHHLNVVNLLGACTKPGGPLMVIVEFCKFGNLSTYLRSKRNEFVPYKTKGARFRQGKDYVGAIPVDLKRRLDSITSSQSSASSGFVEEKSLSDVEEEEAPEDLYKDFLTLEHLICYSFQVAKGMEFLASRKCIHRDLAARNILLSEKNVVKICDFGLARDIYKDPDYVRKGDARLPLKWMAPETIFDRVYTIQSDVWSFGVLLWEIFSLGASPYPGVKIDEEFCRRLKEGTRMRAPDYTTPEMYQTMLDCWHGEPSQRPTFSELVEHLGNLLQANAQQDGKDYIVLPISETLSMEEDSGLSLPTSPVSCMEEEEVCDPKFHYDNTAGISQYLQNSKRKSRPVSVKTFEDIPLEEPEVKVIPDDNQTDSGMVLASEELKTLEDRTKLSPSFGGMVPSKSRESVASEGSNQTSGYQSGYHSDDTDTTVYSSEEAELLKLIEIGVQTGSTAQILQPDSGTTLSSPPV
Recorded IC50 for the following molecules

COc1cc2ncnc(Oc3cnn(CC(=O)Nc4ccc5c(c4)NCC5)c3)c2cc1OC : ~2 nM
COc1cc2ncnc(Oc3cnn(CC(=O)Nc4cccc5c4OCO5)c3)c2cc1OC : ~1 nM

Then this molecule:
Data request: Which IC50 value is on record for "COc1cc2ncnc(Oc3cnn(CC(=O)Nc4ccc5c(c4)OCO5)c3)c2cc1OC" ?
Data returned: ~30 nM

###

target: PDGFRβ tyrosine kinase (Homo sapiens); construct: PDGFRα, PDGFRβ and KDR receptor cytoplasmic domains, obtained by expression of recombinant protein in insect cells; assay: In vitro enzyme assay (ELISA), Test (a), PDGFRβ; conditions: ATP 2.8 μM, read-out: IC50 versus PDGFRβ tyrosine kinase
Sequence (P09619 554-1106 limits assumed): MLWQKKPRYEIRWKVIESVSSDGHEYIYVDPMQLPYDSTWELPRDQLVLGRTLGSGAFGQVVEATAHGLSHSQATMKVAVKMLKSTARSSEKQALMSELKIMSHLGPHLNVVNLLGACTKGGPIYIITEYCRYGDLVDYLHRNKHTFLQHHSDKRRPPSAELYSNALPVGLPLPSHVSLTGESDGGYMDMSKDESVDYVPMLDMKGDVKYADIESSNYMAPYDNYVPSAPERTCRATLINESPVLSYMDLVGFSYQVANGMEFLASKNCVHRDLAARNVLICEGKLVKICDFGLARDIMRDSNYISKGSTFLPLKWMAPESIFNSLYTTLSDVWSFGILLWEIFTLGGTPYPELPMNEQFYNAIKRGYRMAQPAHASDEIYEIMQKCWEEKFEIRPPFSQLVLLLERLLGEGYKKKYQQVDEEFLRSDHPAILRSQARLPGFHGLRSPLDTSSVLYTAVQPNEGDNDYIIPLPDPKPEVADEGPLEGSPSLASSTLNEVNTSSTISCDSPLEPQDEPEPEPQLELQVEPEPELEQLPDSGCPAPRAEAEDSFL
Entries and their measured IC50 follow.

COc1cc2ncnc(Oc3cnn(CC(=O)Nc4ccc5c(c4)OCO5)c3)c2cc1OC [Example 1] : ~0.5 nM

# input for lookup
Data request: Recorded IC50 for COc1cc2ncnc(Oc3cnn(CC(=O)Nc4cccc5c4OCO5)c3)c2cc1OC [Example 2] , please?
Data returned: ~10 nM

All values here come from patent US20090036474A1.
